B1: Pistol ribozyme (parent)
chain: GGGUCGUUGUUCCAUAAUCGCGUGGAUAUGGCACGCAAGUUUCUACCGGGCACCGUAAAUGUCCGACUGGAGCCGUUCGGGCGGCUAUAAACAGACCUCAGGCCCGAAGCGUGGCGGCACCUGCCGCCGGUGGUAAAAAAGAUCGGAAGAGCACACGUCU

Variants of: B1
assay notes: aptazyme ON/OFF ratio, guanine; higher = stronger switching; co-transcriptional cleavage with and without guanine
quantity measured: aptazyme ON/OFF ratio
Provide a numeric answer; units are not to be included.

Specify reported aptazyme ON/OFF ratio for the variant shown: U7A U8C U11C C12U C13A
1.28

Answer with reported aptazyme ON/OFF ratio of U7G U8G G9A C13U
1.36

Identify aptazyme ON/OFF ratio associated with the variant U7C U8C G9C U10G U11G C12A C13U
1.09

Return aptazyme ON/OFF ratio for the following variant: U7A G9C U11G C12G C13U
1.12

Every entry's value here was drawn from the RNAGym collection of RNA variant scans (doi:10.1021/acssynbio.7b00057).
